# TARGET OR TEST SYSTEM: UniProt P23458
# Sequence (P23458 whole entry): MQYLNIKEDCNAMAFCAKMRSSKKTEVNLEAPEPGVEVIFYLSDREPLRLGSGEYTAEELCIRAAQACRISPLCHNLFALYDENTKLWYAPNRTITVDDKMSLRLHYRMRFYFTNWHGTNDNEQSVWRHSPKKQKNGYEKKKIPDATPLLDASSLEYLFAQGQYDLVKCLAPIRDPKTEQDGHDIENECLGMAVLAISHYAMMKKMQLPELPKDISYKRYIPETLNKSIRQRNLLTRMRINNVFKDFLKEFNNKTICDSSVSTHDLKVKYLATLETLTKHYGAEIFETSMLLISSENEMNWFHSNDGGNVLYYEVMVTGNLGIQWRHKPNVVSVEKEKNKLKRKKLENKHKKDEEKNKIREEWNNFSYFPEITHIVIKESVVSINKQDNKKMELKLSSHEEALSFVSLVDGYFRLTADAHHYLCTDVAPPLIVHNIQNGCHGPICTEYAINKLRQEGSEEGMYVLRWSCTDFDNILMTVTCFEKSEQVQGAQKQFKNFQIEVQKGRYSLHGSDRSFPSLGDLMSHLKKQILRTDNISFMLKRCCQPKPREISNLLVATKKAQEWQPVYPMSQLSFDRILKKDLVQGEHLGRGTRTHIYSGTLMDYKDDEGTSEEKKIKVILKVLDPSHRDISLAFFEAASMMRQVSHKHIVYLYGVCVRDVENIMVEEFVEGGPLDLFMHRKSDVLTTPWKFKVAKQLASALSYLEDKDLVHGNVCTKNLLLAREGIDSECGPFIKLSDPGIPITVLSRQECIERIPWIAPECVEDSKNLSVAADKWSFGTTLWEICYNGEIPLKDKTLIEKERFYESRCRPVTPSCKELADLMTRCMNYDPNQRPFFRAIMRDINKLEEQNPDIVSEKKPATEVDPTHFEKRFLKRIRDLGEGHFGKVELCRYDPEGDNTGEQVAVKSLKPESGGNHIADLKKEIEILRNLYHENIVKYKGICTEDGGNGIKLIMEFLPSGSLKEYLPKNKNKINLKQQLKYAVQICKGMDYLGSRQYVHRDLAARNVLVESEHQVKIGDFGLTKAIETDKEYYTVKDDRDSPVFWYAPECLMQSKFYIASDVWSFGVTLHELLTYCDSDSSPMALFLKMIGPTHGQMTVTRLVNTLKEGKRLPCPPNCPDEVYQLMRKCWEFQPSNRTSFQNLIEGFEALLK
# EXPERIMENT NOTES: JAK1 LANCE Ultra kinase assay
# Assay type: biochemical
# MEASUREMENT PARAMETERS: 38 uM ATP
RECORDED ENDPOINT: log10 IC50 (log10 of the value in nM)

[[record]]
molecule = "N#Cc1cn2c(n1)CC(Nc1c(C#N)cnc3[nH]ccc13)CC2 (centres unmarked)"
target_or_test_system = "UniProt P23458"
recorded_endpoint = "log10 IC50"
readout_number = -0.12

[[record]]
molecule = "CC[C@@H]1CN(C(=O)NCC#N)C[C@@H]1Nc1c(C(F)(F)F)cnc2[nH]ccc12"
target_or_test_system = "UniProt P23458"
recorded_endpoint = "log10 IC50"
readout_number = -0.19

[[record]]
molecule = "CNCC1CCN(S(=O)(=O)C[C@H]2CC[C@H](N(C)c3c(C#N)cnc4[nH]ccc34)CC2)C1 (some centres unmarked)"
target_or_test_system = "UniProt P23458"
recorded_endpoint = "log10 IC50"
readout_number = -0.17

[[record]]
molecule = "C[C@H](O)C(=O)N1C[C@H]2C[C@H](N(C)c3c(C#N)cnc4[nH]ccc34)C[C@H]2C1"
target_or_test_system = "UniProt P23458"
recorded_endpoint = "log10 IC50"
readout_number = 0.85

[[record]]
molecule = "CC[C@@H]1CC(NC(=O)Nc2nc(OC)ns2)C[C@@H]1Nc1c(C#N)cnc2[nH]ccc12 (some centres unmarked)"
target_or_test_system = "UniProt P23458"
recorded_endpoint = "log10 IC50"
readout_number = 0.92

[[record]]
molecule = "CCC1CN(C(=O)CC#N)CC1Nc1c(C#N)cnc2[nH]ccc12 (centres unmarked)"
target_or_test_system = "UniProt P23458"
recorded_endpoint = "log10 IC50"
readout_number = 0.78

[[record]]
molecule = "CN(c1c(C#N)cnc2[nH]ccc12)[C@@H]1CC[C@H](CS(=O)(=O)N2CCC(CO)C2)C1 (some centres unmarked)"
target_or_test_system = "UniProt P23458"
recorded_endpoint = "log10 IC50"
readout_number = 0.05

[[record]]
molecule = "CC[C@@H]1CN(C(=O)Nc2nc(OC)ns2)C[C@@H]1Nc1c(C#N)cnc2[nH]ccc12"
target_or_test_system = "UniProt P23458"
recorded_endpoint = "log10 IC50"
readout_number = 0.46

